test: amyloid nucleation score (Sup35N fusion, yeast selection) (log enrichment); library NNK2; higher = more nucleation; inactive = no reads after selection;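 also: zero at mode of non-aggregating sequences after 7 days selection at 30°C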
Listing of entries alongside the reported amyloid nucleation score.

Q: Supply reported amyloid nucleation score belonging to this substance: `NACPVCSRW`
Ans: 0.589

Q: Provide one value: measured amyloid nucleation score of `SFIGLETCQFSFHLIF`
Ans: 4.15

Q: Please report amyloid nucleation score for the following substance: `LSFFMPDT`
Ans: -1.53

Q: Name the recorded amyloid nucleation score of the substance listed here: `FDWQRLMG`
Ans: 0.196

Q: Please look at this substance and report its amyloid nucleation score: `FIDVHMEYRDKTRCWLVLVL`
Ans: -0.891

###

assay: amyloid nucleation score (Sup35N fusion, yeast selection) (log enrichment); library NNK3; higher = more nucleation; inactive = no reads after selection
measurement.label: amyloid nucleation score

Some substances with known amyloid nucleation score results, for comparison:
- substance: "NVAAFGVAMPGMSV"
  amyloid nucleation score: "inactive"
- substance: "SRWLSDSEIENKWFLISDMT"
  amyloid nucleation score: "inactive"
- substance: "SSWFNGSLTVRQLIQRGRLF"
  amyloid nucleation score: "inactive"
- substance: "RYKGFINVLC"
  amyloid nucleation score: "inactive"
- substance: "QFFCFNRLWDWVTFRVIDMS"
  amyloid nucleation score: "inactive"
- substance: "GPNDLSMAFRTLYDQAVPYV"
  amyloid nucleation score: -0.521
- substance: "GSKAHNDIDRGGSWMGWNIA"
  amyloid nucleation score: "inactive"
- substance: "LAGIMCCEKVYCGPRDGVLG"
  amyloid nucleation score: 1.69

Q: Report measured amyloid nucleation score; entry is `EHNYVSTIGYSCRFEPGTRR`
Ans: inactive

Q: Identify amyloid nucleation score associated with the substance `EHNNQLGIWSTYPCSNLSGH`
Ans: inactive

Q: Determine from records and report amyloid nucleation score for `WYVCRSGVCGHALIALATRR`
Ans: -0.483

Q: Could you please provide reported amyloid nucleation score for `RFIEKTSKIMSPDAYPSLKY` ? Thanks!
Ans: inactive

Q: Please report amyloid nucleation score for the following substance: `GGTVFSNCVGVRRLNMYINY`
Ans: inactive

Q: Output amyloid nucleation score of `LFSNNNCLNIWVWLV`
Ans: 2.19

Q: Indicate the recorded amyloid nucleation score value for this substance: `STCYSCVMLMVGS`
Ans: inactive

###

assay: amyloid nucleation score (Sup35N fusion, yeast selection) (log enrichment); library NNK1; higher = more nucleation; inactive = no reads after selection
Would you mind labelling by amyloid nucleation score? At or over -0.01 is 1 (yes), under is 0 (no).

- substance: "DPARGWPQNVNLFLLSNRR"
  class.label: "1 (yes)"
- substance: "DLSMKRVDKAPCYGNGDYRT"
  class.label: "0 (no)"
- substance: "YGFKSRDKPFNL"
  class.label: "1 (yes)"
- substance: "TLRMGESCFKWWYQIFIQLF"
  class.label: "1 (yes)"
- substance: "QVLQNCRGTFDDRILLFNGI"
  class.label: "0 (no)"
- substance: "KRVLNLFGEESFAGMIWIDY"
  class.label: "0 (no)"
- substance: "SRLVCLVNYVGGGYIETITL"
  class.label: "1 (yes)"

Note: attention shifts to another entry.
Q: Form field: amyloid nucleation score at least -0.01? Entry: `GEGICL`
Ans: 0 (no)

###

Each entry below carries its recorded amyloid nucleation score.
experiment: amyloid nucleation score (Sup35N fusion, yeast selection) (log enrichment); library NNK3; higher = more nucleation; inactive = no reads after selection
Give the figure by itself; no unit, no explanation.

These solved cases illustrate the format of a correct answer.
- input.sequence: "FGEVNIAYRMIMRMSGQGGK"
  measurement.label: "amyloid nucleation score"
  recorded.result: 0.998
- input.sequence: "SMIYRLRSWVQYCDSQC"
  measurement.label: "amyloid nucleation score"
  recorded.result: 0.344

Q: Indicate the recorded amyloid nucleation score value for this sequence: `FMYSGAVSDVRLNSSGDSLG`
Ans: -0.516

Q: Please list amyloid nucleation score recorded for the sequence `CGCCHVVVNSWW`
Ans: 2.65

###

experiment: amyloid nucleation score (Sup35N fusion, yeast selection) (log enrichment); library NNK2; higher = more nucleation; inactive = no reads after selection
measurement.label: amyloid nucleation score
Just the number, please.

Q: Return value of amyloid nucleation score for input `HVKASGP` , no commentary.
Ans: 0.339

Q: Provide only the value of recorded amyloid nucleation score for `NSRLRRVYAGSARGAWTYRR`
Ans: 1.14

Q: Look up and state reported amyloid nucleation score for `AMSPGTVKRFGLLVALFQY`
Ans: 0.867

Q: Quote amyloid nucleation score reported for `FLYLNAKSVRASIVWYEVKL` please.
Ans: 8.23

Q: // fetch amyloid nucleation score given entry `GGWYDPGCSGGDIITDEVDW`
Ans: -0.159

Q: Determine from records and report amyloid nucleation score for `ARFFLHFG`
Ans: 6.2

Q: Entry `LSRFFFNRAPRKVTGLSVRY` needs its amyloid nucleation score filled in; supply it.
Ans: 0.96

Q: Assign amyloid nucleation score to the following record: `RESWLAGMSVYWANSGMSFA`
Ans: -0.487

Q: Complete the entry with amyloid nucleation score for `FRIHIWYGY`
Ans: 0.244

Q: Tell me measured amyloid nucleation score for `SDPSNLSMMCTQQRLAGSD` please.
Ans: -0.189

Q: Note down amyloid nucleation score recorded for `FGLVHRIPRFVLWILSLGSG`
Ans: -0.012

Q: Check the records and state amyloid nucleation score for `YMSIHSKAGMVSLDLKCLCT`
Ans: -0.427

Q: Supply measured amyloid nucleation score of `SLARSTRFLYWSGNELVFIS` in your reply.
Ans: 3.66

Q: For the substance `RRLLGRLFLGTTSKLYVGDL` , give its reported amyloid nucleation score.
Ans: -0.147

###

assay: amyloid nucleation score (Sup35N fusion, yeast selection) (log enrichment); library NNK3; higher = more nucleation; inactive = no reads after selection
measurement.label: amyloid nucleation score

These recorded examples may help you get a feel for the data.
- substance: "KPCSLIRWPIKASMFSYVHS"
  amyloid nucleation score: "inactive"
- substance: "HTFYFYSMSSGFKRHETTSG"
  amyloid nucleation score: "inactive"
- substance: "ATNLWR"
  amyloid nucleation score: "inactive"
- substance: "HGPRLLTSKVRFWRKTLRST"
  amyloid nucleation score: "inactive"
- substance: "DLHMIATMGECMHCEMHL"
  amyloid nucleation score: "inactive"
- substance: "SQLAYVGTVKTNFDKISRCG"
  amyloid nucleation score: "inactive"

Now look at this entry.
Q: Query amyloid nucleation score for `SLMPMNYYGVTINVRWSLIQ`
Ans: 0.554

###

test: amyloid nucleation score (Sup35N fusion, yeast selection) (log enrichment); library NNK2; higher = more nucleation; inactive = no reads after selection
measurement.label: amyloid nucleation score
Answer with a number only.

- substance: "RKLIYSICKYVFALSVTIVG"
  amyloid nucleation score: -1.3
- substance: "CNRESEWIECVRGFLEYANG"
  amyloid nucleation score: 1.44
- substance: "RSKMNRLMVLRSRVRWWYNE"
  amyloid nucleation score: 0.485
- substance: "PHQKSAY"
  amyloid nucleation score: -0.284
- substance: "NKAHINW"
  amyloid nucleation score: 0.476

Q: # return recorded amyloid nucleation score for entry `AVSHCMDDSFWGAIHKRLLY`
Ans: 3.63

Q: # return recorded amyloid nucleation score for entry `FFVKNASSSFFLLKRLSWT`
Ans: -0.59

Q: Determine from records and report amyloid nucleation score for `CRLADFAPFRHCFFSHDCSR`
Ans: 3.57

Q: State, in one line, measured amyloid nucleation score of `LLHGSLWAQSMSLCWLNVTG`
Ans: 4.24

Q: Answer with reported amyloid nucleation score of `NQFVVMDQVLVMWGCFDLTR`
Ans: 0.417

###

test: amyloid nucleation score (Sup35N fusion, yeast selection) (log enrichment); library NNK3; higher = more nucleation; inactive = no reads after selection
measurement.label: amyloid nucleation score

Below are worked cases with known answers.
- substance: "KNVFGSSFLLVVSYCNISAF"
  amyloid nucleation score: 1.95
- substance: "DRTHDSSDSCGCCNNL"
  amyloid nucleation score: "inactive"
- substance: "VVRSRTFTSTSYTF"
  amyloid nucleation score: 0.777
- substance: "HCSCRNWSLMLGRFFVFVTC"
  amyloid nucleation score: "inactive"
- substance: "AMLLCTYFRKAVYLNAK"
  amyloid nucleation score: "inactive"

Q: Name the recorded amyloid nucleation score of the item `TLGRNCLVQRSCMGRSSECD` in your answer.
Ans: inactive

Q: Give a short answer stating reported amyloid nucleation score for `AFYFRT` .
Ans: inactive

Q: State, in one line, measured amyloid nucleation score of `LCITIVSRWVVGVFHQMFYT`
Ans: -0.219

Q: // Input: `SCLRGNTAKFFSKVSRVCDK` . Output its amyloid nucleation score only.
Ans: 0.133

Q: Give the value of amyloid nucleation score reported for the following: `RQLMRSDPAMGTICERY`
Ans: inactive
